tested-target: T1, O16-bA
T1 chain: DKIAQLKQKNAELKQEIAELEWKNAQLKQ
test-name: two-hybrid library CCNG1;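 also: natural log of median RNA to DNA barcode read ratio; higher means stronger binding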
quantity-kind: interaction score

INSERT INTO assay_data (binder, quantity_kind, value_measured) VALUES
  ('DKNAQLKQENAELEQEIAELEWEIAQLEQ [O1-bA]', 'interaction score', -0.581),
  ('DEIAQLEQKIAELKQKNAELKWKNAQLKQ [O12-bA]', 'interaction score', -0.73);

1. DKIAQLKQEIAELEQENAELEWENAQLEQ [O11-bA]
2. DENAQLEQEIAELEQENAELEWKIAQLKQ [O14-bA]
stdin: Higher interaction score: 1 or 2 ? Record your answer as the label of the chosen record.
stdout: 2
